tested on: Plasmodium falciparum NF54-HGL (transmission to Anopheles stephensi); assay: percentage of barcode signal found in uninfected mosquitoes (transmission-blocking activity); higher = stronger blocking of transmission to mosquito, active = 80 or more; settings: 20 µM; gametocyte preincubation time 24 h; readout time post-feed 8 days
Classify by measured percentage of barcode signal found in uninfected mosquitoes: Yes if it is equal to or exceeds 50%, No if it is smaller.

Please review the following examples before continuing.
compound	answerLabel
CO[C@@H]1CN(c2ccc(C#CC3(O)CN4CCC3CC4)c(Cc3ccccc3)n2)C[C@H]1O (stereo not given in full)	No
O=C1O[C@@H](COc2ccon2)CN1c1cc(F)c(C2=CCN(Cc3ccccc3)CC2)c(F)c1	No
CO/N=C(\C(=O)OC)c1ccccc1CO/N=C(\C)c1cccc(C(F)(F)F)c1	Yes

Consider the record given below.
Please check the record Cc1cccc(C(=O)Nc2ccnc(N(C)C3CCN(CC(C)C)CC3)c2)c1 and state if its percentage of barcode signal found in uninfected mosquitoes is at or above 50%.
No

---

test system: Plasmodium falciparum NF54-HGL (transmission to Anopheles stephensi); assay: percentage of barcode signal found in uninfected mosquitoes (transmission-blocking activity); higher = stronger blocking of transmission to mosquito, active = 80 or more; conditions: 10 µM; gametocyte preincubation time 24 h; readout time post-feed 8 days
parameterMeasured: percentage of barcode signal found in uninfected mosquitoes (%)
Number only, in %; omit the unit.

Reference set (3 entries):
compound	observedResult
CC1(C)OB(O)c2ccc(C3=NOC(c4cc(Cl)c(F)c(Cl)c4)(C(F)(F)F)C3)cc21 (stereo unspecified)	-4.84
CC(C)(C)C(O)C(Oc1ccc(-c2ccccc2)cc1)n1cncn1 (stereo unspecified)	-1.02
Nc1c2c(nc3sc4c(c13)CCCC4)CCCC2	42

Fill in the blank: the reported percentage of barcode signal found in uninfected mosquitoes of Cc1cc(C2=NOC(c3cc(Cl)c(F)c(Cl)c3)(C(F)(F)F)C2)ccc1C(=O)NCc1ccc2c(c1)C(C)(C)OB2O (stereo unspecified) is ____.
43.3

Next entry: Cc1nn(Cc2ccccc2)c(Cl)c1C(=O)NC1CCCCCC1
2.01

Next entry: CC1COC(Cn2cncn2)(c2ccc(Oc3ccc(Cl)cc3)cc2Cl)O1 (stereo unspecified)
19.1

Value source: the supplement of paper PMC8726507
